Hello, the source for this data is patent US20250135006A1, in case you need it.

In this section, each of the compounds is paired with its reported EC50.
- ASSAYED_TARGET: human toll like receptor 8 (hTLR8) (Homo sapiens)
- Sequence (Q9NR97 27-1041): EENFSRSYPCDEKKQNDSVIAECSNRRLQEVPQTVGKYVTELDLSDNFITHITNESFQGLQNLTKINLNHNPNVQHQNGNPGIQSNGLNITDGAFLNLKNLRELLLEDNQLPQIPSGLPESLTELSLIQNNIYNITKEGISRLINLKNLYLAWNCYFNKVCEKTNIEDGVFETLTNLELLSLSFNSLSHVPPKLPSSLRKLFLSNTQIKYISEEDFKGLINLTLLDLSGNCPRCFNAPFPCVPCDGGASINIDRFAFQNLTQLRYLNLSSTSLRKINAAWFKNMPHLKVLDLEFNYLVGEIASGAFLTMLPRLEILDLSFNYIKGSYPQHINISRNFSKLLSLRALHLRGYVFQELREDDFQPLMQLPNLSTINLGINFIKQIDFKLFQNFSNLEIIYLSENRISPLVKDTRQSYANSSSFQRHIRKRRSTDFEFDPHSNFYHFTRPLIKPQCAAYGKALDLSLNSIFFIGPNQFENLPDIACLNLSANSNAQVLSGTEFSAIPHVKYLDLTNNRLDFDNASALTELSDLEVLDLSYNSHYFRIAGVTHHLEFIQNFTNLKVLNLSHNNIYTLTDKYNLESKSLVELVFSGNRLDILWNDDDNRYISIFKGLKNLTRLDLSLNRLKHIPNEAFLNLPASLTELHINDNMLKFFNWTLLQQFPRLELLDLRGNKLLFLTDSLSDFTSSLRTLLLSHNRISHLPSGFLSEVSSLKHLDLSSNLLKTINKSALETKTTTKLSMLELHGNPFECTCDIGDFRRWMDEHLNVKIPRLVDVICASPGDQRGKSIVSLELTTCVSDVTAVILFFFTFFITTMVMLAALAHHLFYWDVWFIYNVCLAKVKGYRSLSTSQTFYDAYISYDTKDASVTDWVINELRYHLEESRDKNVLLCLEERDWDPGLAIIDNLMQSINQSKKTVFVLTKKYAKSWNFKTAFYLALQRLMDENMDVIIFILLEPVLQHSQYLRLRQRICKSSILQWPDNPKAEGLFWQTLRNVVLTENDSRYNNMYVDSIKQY
- EXPERIMENTAL_DETAILS: hTLR8 in-vitro functional assay (HEK-Blue hTLR8 SEAP reporter)
- TEST_CONTEXT: HEK-Blue hTLR8 cells, overnight incubation
Your answer is read as µM, so omit the unit and give the number.

IN: // output EC50; input CCOCc1nc2c(N)nc3cc(CCCN4CCN(C(=O)CCOCCOCCOCCOCCOCCOCCOCCOCCOCCOCCOCCOCCOCCOCCOCCOCCOCCOCCOCCOCCOCCOCCOCCOCCNC(=O)CCOCCOCCOCCOCCNC(=O)O[C@H]5CC[C@@]6(C)C(=CC[C@H]7[C@@H]8CC[C@H]([C@H](C)CCCC(C)C)[C@@]8(C)CC[C@@H]76)C5)CC4)ccc3c2n1CC(C)(CO)CO [Compound 5] ; system human toll like receptor 8 (hTLR8) (Homo sapiens)
OUT: 2.3

IN: // output EC50; input CCCCc1nc2c(N)nc3cc(CCCN4CCN(CCCOCCOCCOCCOCCNC(=O)O[C@H]5CC[C@@]6(C)C(=CC[C@H]7[C@@H]8CC[C@H]([C@H](C)CCCC(C)C)[C@@]8(C)CC[C@@H]76)C5)CC4)ccc3c2n1CC(C)(CO)CO [Compound 22] ; system human toll like receptor 8 (hTLR8) (Homo sapiens)
OUT: 11.7

IN: // output EC50; input CCCCc1nc2c(N)nc3cc(CCCN4CCN(CCCOCCOCCOCCOCCOCCOCCOCCOCCOCCOCCOCCOCCOCCOCCOCCOCCOCCOCCOCCOCCNC(=O)O[C@H]5CC[C@@]6(C)C(=CC[C@H]7[C@@H]8CC[C@H]([C@H](C)CCCC(C)C)[C@@]8(C)CC[C@@H]76)C5)CC4)ccc3c2n1CC(C)(CO)CO [Compound 7] ; system human toll like receptor 8 (hTLR8) (Homo sapiens)
OUT: 14.4
